# Tested on: OVCAR-3 ovarian
# protocolSummary: NCI tumour cell line growth inhibition, 48 h
observationType: TGI

Query: OVCAR-3 ovarian / TGI / Oc1cccc2c1[nH]c1c(C3=C[C@@]4(O)CC/C=C\CCCCN5CC[C@@H]3[C@]3(CC6/C=C\CCCCN6[C@H]34)C5)nccc12 (stereo not given in full) : value?
Response: 2.83 µM

Query: OVCAR-3 ovarian / TGI / Nc1ncnc2c1ncn2C1OC(COC2C(CO)OC(OC(C(=O)O)C(O)C(OP(=O)(O)O)C(O)C(=O)O)C(O)C2O)C(O)C1O (stereo not given) : value?
Response: > 100 µM

Query: OVCAR-3 ovarian / TGI / Nc1c2ccccc2nc2ccccc12 (tested in a mixture with another compound) : value?
Response: 6.15 µM

Query: OVCAR-3 ovarian / TGI / `C[C@@H]1OCC2(CCN(c3cnc(Sc4ccnc(N)c4Cl)c(N)n3)CC2)[C@@H]1N` : value?
Response: > 100 µM

Query: OVCAR-3 ovarian / TGI / `CCn1c2ccccc2c2cc(NC(=O)c3c(NCCNCCO)nc(=O)[nH]c3C)ccc21` : value?
Response: > 100 µM

Query: OVCAR-3 ovarian / TGI / `C#CCCOC(=O)c1ccccc1OC(C)=O` : value?
Response: > 100 µM

Query: OVCAR-3 ovarian / TGI / `C[N+](C)(CCO)CCN1c2ccccc2Sc2ccccc21` : value?
Response: > 10 µM

Query: OVCAR-3 ovarian / TGI / `Cc1c(-c2nnc(-c3cc(Cl)c(Cl)cc3Cl)o2)nnn1-c1ccnc2c(C(F)(F)F)cccc12` : value?
Response: 82.7 µM

Query: OVCAR-3 ovarian / TGI / `Cc1cc(N(CCOS(C)(=O)=O)CCOS(C)(=O)=O)ccc1C=Nc1ccc(-c2csc(-c3ccc(Br)cc3)n2)cc1` : value?
Response: 44.3 µM

Query: OVCAR-3 ovarian / TGI / `Cn1c(=O)n2n(c1=O)[C@@H](c1ccccc1)[C@H]2c1ccccc1` : value?
Response: > 100 µM

Query: OVCAR-3 ovarian / TGI / `COc1cnc2c(c1)C(=O)c1c-2n(CCCNC(C)C)c(=O)c2cc([N+](=O)[O-])ccc12` : value?
Response: 0.247 µM

Query: OVCAR-3 ovarian / TGI / `C=C(CN(C)C)C(=O)c1ccc(Oc2ccccc2)cc1` : value?
Response: 13.2 µM

Query: OVCAR-3 ovarian / TGI / `O=S(=O)(CCCCl)SCCCCl` : value?
Response: > 66.6 µM

Query: OVCAR-3 ovarian / TGI / CC1C(O)Oc2cc3c(cc2C1c1ccccc1O)OCO3 (stereo not given) : value?
Response: 99 µM

Query: OVCAR-3 ovarian / TGI / FC(F)(F)c1cccc(C2SCc3nc4ccccc4n32)c1 (stereo not given) : value?
Response: > 100 µM

Query: OVCAR-3 ovarian / TGI / `COc1cc(N2CCC(N3CCN(C)CC3)CC2)ccc1Nc1ncc(Cl)c(Nc2ccccc2S(=O)(=O)C(C)C)n1` : value?
Response: 6.87 µM

Query: OVCAR-3 ovarian / TGI / Cc1cn(C2CC(NC(=NCC3OC(n4cnc5c(N)ncnc54)CC3O)NC#N)C(CO)O2)c(=O)[nH]c1=O (stereo not given) : value?
Response: > 100 µM

Query: OVCAR-3 ovarian / TGI / `O=c1[nH]c2cc([N+](=O)[O-])ccc2nc1/C=C(\O)c1ccc(Cl)cc1` : value?
Response: 38.6 µM

Query: OVCAR-3 ovarian / TGI / CC(CN)[C@@H]1CC[C@]2(CO)CC[C@]3(C)[C@H](CC[C@@H]4[C@@]5(C)CCC(N)C(C)(C)[C@@H]5CC[C@]43C)[C@@H]12 (stereo not given in full) : value?
Response: 3.24 µM

Query: OVCAR-3 ovarian / TGI / CC12C(=O)OC(=O)C1(C)C1C=CC2O1 (stereo not given) : value?
Response: 99 µM
